molecular target: DNA methyltransferase-1 (mDNMT1) (Mus musculus, UniProt P13864); experiment: SPR; type: binding
Sequence (P13864 731-1602): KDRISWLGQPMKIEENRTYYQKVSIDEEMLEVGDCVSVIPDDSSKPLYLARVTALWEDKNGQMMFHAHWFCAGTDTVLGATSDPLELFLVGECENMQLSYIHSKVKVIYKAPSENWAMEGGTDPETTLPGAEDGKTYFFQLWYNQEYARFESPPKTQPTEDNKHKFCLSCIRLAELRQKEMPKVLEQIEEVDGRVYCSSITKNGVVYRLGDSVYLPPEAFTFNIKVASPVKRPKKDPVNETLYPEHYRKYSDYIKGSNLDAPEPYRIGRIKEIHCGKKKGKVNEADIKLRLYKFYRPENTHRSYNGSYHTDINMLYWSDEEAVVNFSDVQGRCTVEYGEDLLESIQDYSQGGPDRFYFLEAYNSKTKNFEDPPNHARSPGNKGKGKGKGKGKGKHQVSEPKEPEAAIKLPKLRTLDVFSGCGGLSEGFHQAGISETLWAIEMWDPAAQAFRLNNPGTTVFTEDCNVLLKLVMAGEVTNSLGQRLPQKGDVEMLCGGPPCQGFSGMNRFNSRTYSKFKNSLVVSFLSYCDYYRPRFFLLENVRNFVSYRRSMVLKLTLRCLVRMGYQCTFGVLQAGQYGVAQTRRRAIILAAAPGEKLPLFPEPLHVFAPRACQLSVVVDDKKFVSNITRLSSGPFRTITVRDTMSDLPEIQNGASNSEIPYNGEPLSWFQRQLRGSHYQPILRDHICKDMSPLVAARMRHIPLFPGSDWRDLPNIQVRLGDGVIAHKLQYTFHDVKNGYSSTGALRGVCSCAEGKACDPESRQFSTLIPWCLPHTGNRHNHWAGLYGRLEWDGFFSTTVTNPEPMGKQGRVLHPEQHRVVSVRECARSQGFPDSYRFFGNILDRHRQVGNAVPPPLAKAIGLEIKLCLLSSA
pKd: −log10 of the molar value.
ASSAY METRIC: pKd

[
  {
    "COMPOUND": "C[S+](CC[C@H](N)C(=O)[O-])C[C@H]1O[C@@H](n2cnc3c(N)ncnc32)[C@H](O)[C@@H]1O (stereo partly shown)",
    "TARGET UNDER TEST": "DNA methyltransferase-1 (mDNMT1) (Mus musculus, UniProt P13864)",
    "ASSAY METRIC": "pKd",
    "REPORTED MEASUREMENT": "~5.24"
  }
]

* * *

target: DNA methyltransferase-1 (mDNMT1) (Mus musculus, UniProt P13864); experiment: SPR; assay type: binding
pKd: −log10 of the molar value.

[
  {
    "SMILES RECORD": "Nc1ncnc2c1ncn2[C@@H]1O[C@H](CSCC[C@H](N)C(=O)O)[C@@H](O)[C@H]1O",
    "pKd": "~6.33"
  }
]

* * *

target: DNA methyltransferase-1 (mDNMT1) (Mus musculus, UniProt P13864, N1248A); assay: SPR; type: binding
Sequence (P13864 731-1602 N1248A): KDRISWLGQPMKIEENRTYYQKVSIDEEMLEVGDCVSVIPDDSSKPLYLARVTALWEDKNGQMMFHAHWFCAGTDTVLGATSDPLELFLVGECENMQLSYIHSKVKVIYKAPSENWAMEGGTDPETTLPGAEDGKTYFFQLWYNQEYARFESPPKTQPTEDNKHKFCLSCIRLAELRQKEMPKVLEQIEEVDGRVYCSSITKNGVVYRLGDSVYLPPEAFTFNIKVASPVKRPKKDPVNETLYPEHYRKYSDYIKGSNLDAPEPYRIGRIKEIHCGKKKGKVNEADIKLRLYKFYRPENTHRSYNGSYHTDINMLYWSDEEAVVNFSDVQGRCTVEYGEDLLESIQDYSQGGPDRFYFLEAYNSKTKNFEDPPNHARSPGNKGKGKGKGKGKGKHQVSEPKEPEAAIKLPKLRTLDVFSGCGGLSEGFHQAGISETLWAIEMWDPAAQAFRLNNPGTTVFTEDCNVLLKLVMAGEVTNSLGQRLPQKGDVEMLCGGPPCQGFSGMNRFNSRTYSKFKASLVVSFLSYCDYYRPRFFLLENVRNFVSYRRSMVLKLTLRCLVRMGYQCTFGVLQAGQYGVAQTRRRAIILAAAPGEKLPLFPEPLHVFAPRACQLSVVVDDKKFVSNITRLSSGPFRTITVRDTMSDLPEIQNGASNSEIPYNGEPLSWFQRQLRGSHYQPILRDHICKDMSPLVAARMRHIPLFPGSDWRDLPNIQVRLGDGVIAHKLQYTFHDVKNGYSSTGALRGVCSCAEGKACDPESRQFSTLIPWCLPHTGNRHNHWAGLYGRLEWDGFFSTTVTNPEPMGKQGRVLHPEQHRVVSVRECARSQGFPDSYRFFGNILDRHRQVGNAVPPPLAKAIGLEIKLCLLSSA
ASSAY METRIC: Kd (µM)

[
  {
    "COMPOUND": "C[S+](CC[C@H](N)C(=O)[O-])C[C@H]1O[C@@H](n2cnc3c(N)ncnc32)[C@H](O)[C@@H]1O (stereo partly shown) [AdoMet]",
    "SCALE UNIT": "µM",
    "REPORTED MEASUREMENT": 6.61
  }
]
